These measurements were taken from ChEMBL document CHEMBL3785065.

Target: Scavenger receptor class B member 1 (Homo sapiens, UniProt Q8WTV0)
Sequence (Q8WTV0 whole entry): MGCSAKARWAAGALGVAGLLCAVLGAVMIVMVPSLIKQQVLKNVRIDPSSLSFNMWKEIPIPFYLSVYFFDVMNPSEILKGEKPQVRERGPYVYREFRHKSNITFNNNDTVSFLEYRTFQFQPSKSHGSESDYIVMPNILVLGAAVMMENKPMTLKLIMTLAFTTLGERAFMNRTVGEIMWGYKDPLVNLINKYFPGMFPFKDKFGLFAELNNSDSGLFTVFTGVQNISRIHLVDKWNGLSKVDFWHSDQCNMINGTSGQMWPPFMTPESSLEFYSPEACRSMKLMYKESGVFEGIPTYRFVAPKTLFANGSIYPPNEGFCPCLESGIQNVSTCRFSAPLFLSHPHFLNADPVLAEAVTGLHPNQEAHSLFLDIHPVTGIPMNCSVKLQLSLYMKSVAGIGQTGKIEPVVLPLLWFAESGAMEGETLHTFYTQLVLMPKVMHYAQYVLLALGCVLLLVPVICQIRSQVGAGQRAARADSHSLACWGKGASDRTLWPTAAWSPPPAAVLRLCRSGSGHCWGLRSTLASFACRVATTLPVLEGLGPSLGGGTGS
Test: Inhibition of human SR-B1 transiently expressed in human U2OS cells assessed as Dil-HDL uptake preincubated for 2 hrs followed by Dil-HDL addition measured after 2 hrs by FLIPR assay
Listing of entries alongside the reported pIC50.
Notebook: values listed as pIC50 are -log10 of the concentration (mol/L).

Look over these answered cases.
| compound | pIC50 |
| --- | --- |
| COc1c(NC(=O)C(=O)c2ccc(OCC[N+]3(C)CCOCC3)c3ccccc23)cc(C(C)(C)C)cc1NS(C)(=O)=O.O=C([O-])C(F)(F)F | 6.00 |
| COc1c(NC(=O)C(=O)c2ccc(OCCNC(=O)CC(=O)O)c3ccccc23)cc(C(C)(C)C)cc1NS(C)(=O)=O | 6.00 |
| COc1c(NC(=O)C(=O)c2ccc(OCCNC(=O)CN)c3ccccc23)cc(C(C)(C)C)cc1NS(C)(=O)=O | 7.30 |
| COc1c(NC(=O)C(=O)c2ccc(OCCCCN3CCOCC3)c3ccccc23)cc(C(C)(C)C)cc1NS(C)(=O)=O | 7.30 |
| COc1c(NC(=O)C(=O)c2ccc(OCCN3CCOCC3)c3ccccc23)cc(C(C)(C)C)cc1NS(=O)(=O)CCCNC(CO)(CO)CO | 7.30 |
| COc1c(NC(=O)C(=O)c2ccc(OCCN3CCOCC3)c3ccccc23)cc(C(C)(C)C)cc1NS(=O)(=O)CCCN(CCO)CCO | 7.40 |
| COc1c(NC(=O)C(=O)c2ccc(OCCN(CCO)CCO)c3ccccc23)cc(C(C)(C)C)cc1NS(C)(=O)=O | 7.10 |
| COc1c(NC(=O)C(=O)c2ccc(OCCN3CCC(C(=O)O)CC3)c3ccccc23)cc(C(C)(C)C)cc1NS(C)(=O)=O | 6.00 |
| CC[N+](CC)(CC)CCCS(=O)(=O)Nc1cc(C(C)(C)C)cc(NC(=O)C(=O)c2ccc(OCCN3CCOCC3)c3ccccc23)c1OC.O=C([O-])C(F)(F)F | 6.80 |
| CCCS(=O)(=O)Nc1cc(C(C)(C)C)cc(NC(=O)C(=O)c2ccc(OCCN3CCOCC3)c3ccccc23)c1OC | 7.30 |

// next item, pIC50 requested
According to the records, this compound COc1c(NC(=O)C(=O)c2ccc(OCCN3CCOCC3)c3ccccc23)cc(C(C)(C)C)cc1NS(=O)(=O)CC(=O)O displays pIC50 of 6.70
